# tested_target: Sphingosine 1-phosphate receptor 3 (Homo sapiens, UniProt Q99500)
# Sequence (Q99500 whole entry): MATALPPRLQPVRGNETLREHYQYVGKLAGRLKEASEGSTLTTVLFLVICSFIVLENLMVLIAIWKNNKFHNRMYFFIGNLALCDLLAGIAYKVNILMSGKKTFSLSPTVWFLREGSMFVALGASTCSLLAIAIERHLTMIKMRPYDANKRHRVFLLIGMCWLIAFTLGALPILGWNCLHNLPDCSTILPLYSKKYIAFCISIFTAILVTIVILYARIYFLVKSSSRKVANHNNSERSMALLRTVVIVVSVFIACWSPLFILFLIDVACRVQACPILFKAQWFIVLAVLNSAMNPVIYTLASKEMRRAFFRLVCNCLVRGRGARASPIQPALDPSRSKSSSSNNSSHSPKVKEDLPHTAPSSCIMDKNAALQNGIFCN
# assay_method_text: Agonist activity at human S1P3R expressed in HEK293T cells by Ca(2+) mobilization assay

- compound_string: "CCCCN(C(=O)c1ccc(C(F)(F)F)cc1)c1nnc(-c2cccc(CO)c2)s1"
  EC50: "> 10 µM"
- compound_string: "CCCCN(C(=O)c1ccc(C(F)(F)F)cc1)c1nnc(-c2cccc3c2ccn3CCC(=O)O)s1"
  EC50: "1.58 µM"
- compound_string: "CCCCN(C(=O)c1ccc(C(F)(F)F)cc1)c1nnc(-c2ccc(CN(C)C)cc2)s1"
  EC50: "> 10 µM"
- compound_string: "CCCCN(C(=O)c1ccc(C(F)(F)F)cc1)c1nnc(-c2ccc(CCC(=O)O)c3c2ccn3C)s1"
  EC50: "> 10 µM"
- compound_string: "O=C(c1ccc(Cl)cc1)N(CC1CC1)c1nnc(-c2cccc(F)c2)s1"
  EC50: "> 10 µM"
